Field: ratio of amounts bound (vs GLS3000). Provide a value for each of the binders that follow.
- TGT: CD3ε homodimer protein (human, UniProt P07766 23-126, limits assumed)
- Sequence (P07766 23-126 limits assumed): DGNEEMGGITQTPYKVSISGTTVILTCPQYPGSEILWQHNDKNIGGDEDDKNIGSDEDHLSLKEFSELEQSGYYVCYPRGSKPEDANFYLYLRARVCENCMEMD
- PROCEDURE SUMMARY: SPR, immobilized CD3ε homodimer;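 also: biacore T200 surface plasmon resonance at 25 °C, antibody variants flowed as analytes over amine-coupled CD3ε homodimer on a CM4 chip, variant binding amount divided by that of GLS3000 antibody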
Answers are plain numbers.

Consider the following illustrative entries.
GLS3000 V94S (antibody, name in Kabat numbering, V domains shown, one-arm format as m2) VH: QVQLVESGGGVVQPGRSLRLSCAASGFTFSNAWMHWVRQAPGKGLEWVAQIKAKSNNYATYYAESVKGRFTISRDDSKNSLYLQMNSLKTEDTAVYYCRYVHYGAYYGVDAWGQGTTVTVSS VL: DIVMTQSPLSLPVTPGEPASISCRSSQSLVHSNRNTYLHWYQQKPGQAPRLLIYKVSNRFSGVPDRFSGSGSGTDFTLKISRVEAEDVGVYYCGQGTQSPYTFGQGTKLEIK :: 0.93
GLS3000 P95G (antibody, name in Kabat numbering, V domains shown, one-arm format as m2) VH: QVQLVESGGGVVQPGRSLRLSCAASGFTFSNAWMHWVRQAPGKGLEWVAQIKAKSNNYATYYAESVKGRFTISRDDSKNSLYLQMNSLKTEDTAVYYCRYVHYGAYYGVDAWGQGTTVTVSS VL: DIVMTQSPLSLPVTPGEPASISCRSSQSLVHSNRNTYLHWYQQKPGQAPRLLIYKVSNRFSGVPDRFSGSGSGTDFTLKISRVEAEDVGVYYCGQGTQVGYTFGQGTKLEIK :: 0.37

**Query** # ratio of amounts bound (vs GLS3000) lookup, item GLS3000 S52D (antibody, name in Kabat numbering, V domains shown, one-arm format as m2) VH: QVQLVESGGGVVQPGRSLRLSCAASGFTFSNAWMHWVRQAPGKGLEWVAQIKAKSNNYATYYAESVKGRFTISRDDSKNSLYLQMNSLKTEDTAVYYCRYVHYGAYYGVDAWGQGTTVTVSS VL: DIVMTQSPLSLPVTPGEPASISCRSSQSLVHSNRNTYLHWYQQKPGQAPRLLIYKVDNRFSGVPDRFSGSGSGTDFTLKISRVEAEDVGVYYCGQGTQVPYTFGQGTKLEIK
**Result** 0.63
